From: PubChem BioAssay

# METHOD NOTES: inhibitors of hydroxyurea-induced Chk1 phosphorylation, primary screen, imaging, HeLa, phospho-Chk1 antibody, percent positive cells (AID 1186)
# MEASUREMENT SETUP: hydroxyurea-induced phospho-Chk1 immunofluorescence imaging, higher = more signal
Activity calls are given as the source filed them. No rule for the calls is given here.
Consider the following compounds; for each one, report its z-score.

Q: Reported z-score for COCCOC(=O)N1C(=O)[C@@]2(c3cc(C#CC4(O)CCCCCC4)ccc31)[C@H](C(=O)N1CCCCCCC1)[C@H]1C(=O)O[C@H](c3ccccc3)[C@H](c3ccccc3)N1[C@@H]2c1ccc(O)cc1 : what is it?
A: -0.169 (inactive)

Q: Reported z-score for COCCOC(=O)N1C(=O)[C@@]2(c3ccccc31)[C@H](C(=O)N1CCc3cc(OC)c(OC)cc3C1)[C@H]1C(=O)O[C@H](c3ccccc3)[C@H](c3ccccc3)N1[C@@H]2c1ccccc1OCCO : what is it?
A: -0.0955 (inactive)

Q: Reported z-score for C=C(CCCC)C(=O)CC[C@@H](OC(C)=O)c1ccccc1OCCO : what is it?
A: -0.21 (inactive)

Q: Reported z-score for O=C(NCC(F)(F)F)[C@@H]1c2ccccc2C(=O)N(Cc2ccccc2Cl)[C@H]1c1ccc(CO)cc1 : what is it?
A: 0.178 (inactive)

Q: Reported z-score for CC(C)NC(=O)[C@@]1(Cc2ccccc2I)c2ccccc2C(=O)N(C2CCCCC2)[C@H]1c1ccc(CO)cc1 : what is it?
A: 0.551 (inactive)

Q: Reported z-score for C=C(CCCC)C(=O)CC[C@@H](OC(=O)c1cccnc1)c1cccc(OCCO)c1 : what is it?
A: -0.279 (inactive)

Q: Reported z-score for O=C1c2ccccc2[C@](Cc2ccccc2I)(C(=O)NCC(F)(F)F)[C@H](c2ccc(CO)cc2)N1Cc1ccccc1C(F)(F)F : what is it?
A: -0.103 (inactive)
